# TARGET OF ASSAY: T1, human αvβ3 integrin ITGAVB3 (human, UniProt P06756 31-992; P05106 27-718, limits assumed)
# T1 construct: Recombinant heterodimer used as immunogen, ELISA coating and SPR ligand; also called A5B3; A5b3
# T1 sequence (P06756 31-992 limits assumed, chain 1 of 2): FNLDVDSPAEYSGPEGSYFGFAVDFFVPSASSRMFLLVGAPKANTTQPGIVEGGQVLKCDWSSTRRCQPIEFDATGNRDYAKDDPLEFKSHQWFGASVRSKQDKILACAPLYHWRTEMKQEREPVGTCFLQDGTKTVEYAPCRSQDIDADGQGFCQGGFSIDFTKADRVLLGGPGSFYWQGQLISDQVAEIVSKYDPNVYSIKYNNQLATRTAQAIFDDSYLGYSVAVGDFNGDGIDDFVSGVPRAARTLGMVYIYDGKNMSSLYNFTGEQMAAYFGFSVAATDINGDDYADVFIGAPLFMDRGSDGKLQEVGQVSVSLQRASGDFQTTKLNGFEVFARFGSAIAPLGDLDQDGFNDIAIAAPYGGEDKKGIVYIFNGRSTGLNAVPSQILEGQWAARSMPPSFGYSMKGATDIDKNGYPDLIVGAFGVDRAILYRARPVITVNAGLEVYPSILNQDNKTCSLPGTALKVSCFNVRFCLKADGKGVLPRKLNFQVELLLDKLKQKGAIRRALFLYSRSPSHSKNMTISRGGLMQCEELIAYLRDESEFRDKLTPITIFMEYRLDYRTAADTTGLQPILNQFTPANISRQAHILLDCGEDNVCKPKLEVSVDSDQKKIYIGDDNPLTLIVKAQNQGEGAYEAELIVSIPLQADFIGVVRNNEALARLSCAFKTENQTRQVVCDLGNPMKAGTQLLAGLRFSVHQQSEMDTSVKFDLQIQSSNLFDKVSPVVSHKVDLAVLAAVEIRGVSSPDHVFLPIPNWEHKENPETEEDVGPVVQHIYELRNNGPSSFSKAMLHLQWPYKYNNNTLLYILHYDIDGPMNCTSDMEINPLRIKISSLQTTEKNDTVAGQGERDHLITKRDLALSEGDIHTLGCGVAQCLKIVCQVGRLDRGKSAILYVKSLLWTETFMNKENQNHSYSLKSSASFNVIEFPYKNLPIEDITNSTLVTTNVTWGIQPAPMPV
# T1 sequence (P05106 27-718 limits assumed, chain 2 of 2): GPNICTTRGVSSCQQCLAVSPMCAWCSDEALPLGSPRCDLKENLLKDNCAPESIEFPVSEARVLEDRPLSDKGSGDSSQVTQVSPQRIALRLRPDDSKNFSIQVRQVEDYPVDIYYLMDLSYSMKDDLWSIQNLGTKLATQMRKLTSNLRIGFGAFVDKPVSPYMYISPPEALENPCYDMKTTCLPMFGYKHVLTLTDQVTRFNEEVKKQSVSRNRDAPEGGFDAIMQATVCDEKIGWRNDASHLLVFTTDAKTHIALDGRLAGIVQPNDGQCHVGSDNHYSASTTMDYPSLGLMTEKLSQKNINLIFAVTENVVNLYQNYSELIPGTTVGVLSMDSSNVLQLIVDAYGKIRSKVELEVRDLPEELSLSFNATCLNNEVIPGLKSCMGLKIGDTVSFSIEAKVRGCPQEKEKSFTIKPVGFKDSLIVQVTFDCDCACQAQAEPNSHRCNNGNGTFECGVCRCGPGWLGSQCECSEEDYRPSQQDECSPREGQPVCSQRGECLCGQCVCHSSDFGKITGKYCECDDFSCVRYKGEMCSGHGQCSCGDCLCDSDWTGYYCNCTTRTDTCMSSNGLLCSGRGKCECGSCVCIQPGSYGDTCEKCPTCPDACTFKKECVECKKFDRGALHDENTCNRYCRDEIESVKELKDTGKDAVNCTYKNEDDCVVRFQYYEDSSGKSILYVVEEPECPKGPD
# TEST NAME: ELISA of soluble VHH (TG1 lysate), induced at 37 C, coated ITGAVB3
PROPERTY LABEL: OD490
Answer using only a numeral; do not append any unit.

Consider the following illustrative entries.
VHH-12 (VHH, also called clone 12) VHH: EVQLVESGGGSVQPGESLRLSCVASGYTVSSSCMAWFRQAPGKEREVVATIVVTSDTTSTFYADSVKGRFTISPDNAKNTLNLQMNSLEPSDTAMYYCAADRKWNVCSRGYRYTPNWANQFTFWGQGTQVTVSS : 1.93
VHH-25 (VHH, also called clone 25) VHH: EVQLVESGGGSVQAGGSLRLSCVVSGYTCSVYDMIWYRQPPGKEREFVSLINSNGRTTYADSVKGRFTISQNNAKNTVYLQMNSLKPEDTAMYYCHAACYSPSRLNYWGQGTQVTVSS : 2.03

Field: next binder
## Task For VHH-22 (VHH, also called clone 22) VHH: QVQLVESGGGSVQAGGSLRLSCVVSGYTCSVYDMIWYRQPPGKEREFVSLINSNGRTTYADSVKGRFTISQNNAKNTVYLQMNSLKPEDTAMYYCHAACYSPSRLNYWGQGTLVTVSS , what is its reported OD490?
## Result 1.98
